- EXPERIMENTAL_SYSTEM: BesC (Streptantibioticus cattleyicolor, UniProt F8JJ25)
- Sequence (F8JJ25 whole entry): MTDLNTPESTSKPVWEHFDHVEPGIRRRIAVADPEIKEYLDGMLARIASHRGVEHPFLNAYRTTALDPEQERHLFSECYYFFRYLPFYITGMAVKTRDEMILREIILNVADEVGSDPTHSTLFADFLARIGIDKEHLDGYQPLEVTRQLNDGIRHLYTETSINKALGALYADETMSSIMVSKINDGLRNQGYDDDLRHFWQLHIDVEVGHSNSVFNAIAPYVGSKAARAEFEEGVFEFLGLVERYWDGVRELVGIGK
- METHOD_DESCRIPTION: stopped-flow absorption titration
- Type: binding
OBSERVED_PROPERTY: Kd (µM)
Please reply with the bare figure in µM and do not write the unit itself.

Sure, the documented Kd for NCCCC[C@H](N)C(=O)O is 300

---

- EXPERIMENTAL_SYSTEM: BesC (Streptantibioticus cattleyicolor, UniProt F8JJ25)
- METHOD_DESCRIPTION: stopped-flow absorption titration
- Type: binding
OBSERVED_PROPERTY: Kd (mM)
Please reply with the bare figure in mM and do not write the unit itself.

Sure, the documented Kd for N[C@@H](CCCCO)C(=O)O [6-OH-L-Nle] is 10

---

- EXPERIMENTAL_SYSTEM: BesC (Streptantibioticus cattleyicolor, UniProt F8JJ25)
- METHOD_DESCRIPTION: stopped-flow absorption titration
- Format: binding
pKd: −log10 of the molar value.
OBSERVED_PROPERTY: pKd

Sure, the documented pKd for NCCSC[C@H](N)C(=O)O [4-thia-L-Lys, S-(2-aminoethyl)-L-cysteine] is > 4.52

The measured values listed here are drawn from paper PMC9047515.
